Each recorded value in this set is attributed to ChEMBL document CHEMBL4706519.

Test system: Escherichia coli
Test: Antibacterial activity against wild type Escherichia coli BW25113 assessed as inhibition of bacterial growth measured after 18 to 20 hrs by broth microdilution method
Type: functional
Details: time 18-20 hrs
QUANTITY_MEASURED: MIC

Reported Escherichia coli MIC for item C/C(=N\NC(N)=O)c1ccc(Nc2nc(-c3ccc(C)cc3)cs2)cc1 was > 64 µg/mL

Note to self: MIC of C/C(=N\NC(N)=S)c1ccc(Nc2nc(-c3ccc(Cl)cc3)cs2)cc1 with Escherichia coli was > 64 µg/mL

Note to self: MIC of C/C(=N\NC(N)=O)c1ccc(Nc2nc(-c3ccc(Cl)cc3)cs2)cc1 with Escherichia coli was > 64 µg/mL
